Below, each entry is listed alongside its reported pIC50.
biological target: Muscarinic acetylcholine receptor M1 (Homo sapiens, UniProt P11229); experiment: Antagonist activity at human muscarinic M1 receptor; type: functional; conditions: read-out: IC50
Please report pIC50 as the negative decimal logarithm of the molar concentration, giving only the number.

# annotated cases, reported pIC50 shown
[[record]]
compound = "CN1CCN(C(=O)C(F)(Cc2ccccc2)c2ccccc2)CC1 (stereo unspecified)"
tested_on = "Muscarinic acetylcholine receptor M1 (Homo sapiens, UniProt P11229)"
quantity_name = "pIC50"
value_observed = 7.54

[[record]]
compound = "CC(C)N1CCCN(C(=O)C(Cc2ccccc2)c2ccccc2)CC1 (stereo unspecified)"
tested_on = "Muscarinic acetylcholine receptor M1 (Homo sapiens, UniProt P11229)"
quantity_name = "pIC50"
value_observed = 7.00

[[record]]
compound = "CN1CCN(C(=O)C(Cc2ccncc2)c2ccccc2)CC1 (stereo unspecified)"
tested_on = "Muscarinic acetylcholine receptor M1 (Homo sapiens, UniProt P11229)"
quantity_name = "pIC50"
value_observed = 6.06

[[record]]
compound = "CN1CCN(C(=O)[C@@](F)(Cc2ccccc2)c2ccccc2)CC1 (mixture of isomers)"
tested_on = "Muscarinic acetylcholine receptor M1 (Homo sapiens, UniProt P11229)"
quantity_name = "pIC50"
value_observed = 7.74

[[record]]
compound = "CN1CCN(C(=O)[C@H](Cc2ccccc2)c2ccccc2)CC1"
tested_on = "Muscarinic acetylcholine receptor M1 (Homo sapiens, UniProt P11229)"
quantity_name = "pIC50"
value_observed = 7.48

[[record]]
compound = "CCN1CCN(C(=O)C(Cc2ccccc2)c2ccccc2)CC1 (stereo unspecified)"
tested_on = "Muscarinic acetylcholine receptor M1 (Homo sapiens, UniProt P11229)"
quantity_name = "pIC50"
value_observed = 6.24


Pending compound:
Which pIC50 value belongs to O=C(C(Cc1ccccc1)c1ccccc1)N1CC[C@H]2CCCN2CC1 (stereo partly specified) ?
6.43

###

biological target: Muscarinic acetylcholine receptor M1 (Homo sapiens); test: Antagonist activity at human muscarinic M1 receptor; assay type: functional; parameters: concentration or dose not given beside the values
QUANTITY NAME: Activity (%)
Reply with just the number (in %).

[[record]]
molecule = "CN1CCN(C(=O)[C@H](Oc2ccccc2)c2ccccc2)CC1 (mixture of isomers)"
quantity_name = "Activity"
unit = "%"
value_observed = 3.4


Entry under review: O=C(C(Cc1ccccc1)c1ccccc1)N1CC[C@H]2CCCN2CC1 (stereo not given in full) . Reported Activity?
6.43

Fill in the blank: the reported Activity of O=C(C(Cc1ccccc1)c1ccccc1)N1CCC(N2CCCC2)CC1 (stereo not given) is ____.
3.5

Field request: Activity | item: CN1CCCN(C(=O)C(Cc2ccccc2)c2ccccc2)CC1 (stereo not given)
2

Item under review: CN1CCN(C(=O)C(Cc2ccccc2)c2ccccc2)CC1 (racemic) . Reported Activity?
2.4

###

molecular target: Muscarinic acetylcholine receptor M1 (Homo sapiens); test: Antagonist activity at human muscarinic M1 receptor
QUANTITY NAME: pEC50
Bear in mind: pEC50 is minus log10 of a mol/L concentration; give just that figure.

For CN1CCN(C(=O)C(F)(Cc2ccccc2)c2ccccc2)CC1 (stereo unspecified) , what is its reported pEC50?
7.55

###

Molecular target: Muscarinic acetylcholine receptor M1 (Homo sapiens)
Sequence (whole entry): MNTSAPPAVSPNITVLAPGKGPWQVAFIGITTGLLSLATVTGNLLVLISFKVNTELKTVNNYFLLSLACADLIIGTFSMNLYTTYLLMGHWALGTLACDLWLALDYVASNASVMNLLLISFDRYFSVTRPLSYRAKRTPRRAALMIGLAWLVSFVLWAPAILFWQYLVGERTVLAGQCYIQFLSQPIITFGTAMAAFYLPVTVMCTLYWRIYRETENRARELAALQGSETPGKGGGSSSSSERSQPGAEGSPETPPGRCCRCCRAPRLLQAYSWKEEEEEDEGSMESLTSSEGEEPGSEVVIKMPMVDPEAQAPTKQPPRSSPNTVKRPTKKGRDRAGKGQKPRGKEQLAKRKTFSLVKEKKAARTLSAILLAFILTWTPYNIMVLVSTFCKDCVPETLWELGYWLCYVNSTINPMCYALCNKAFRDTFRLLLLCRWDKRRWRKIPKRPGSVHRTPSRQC
Experiment: Antagonist activity at human muscarinic M1 receptor
Type: functional
Parameters: concentration or dose not given beside the values
Activity: recorded values

# annotated cases, reported Activity shown
[[record]]
compound = "CN1C[C@@H]2CN(C(=O)C(Cc3ccccc3)c3ccccc3)C[C@@H]2C1 (some centres not stated)"
tested_on = "Muscarinic acetylcholine receptor M1 (Homo sapiens)"
value_observed = "6.7%"

[[record]]
compound = "CC(C)N1CCN(C(=O)C(Cc2ccccc2)c2ccccc2)CC1 (configuration not stated)"
tested_on = "Muscarinic acetylcholine receptor M1 (Homo sapiens)"
value_observed = "1.3%"

[[record]]
compound = "C[N+]1(C)CCN(C(=O)C(Cc2ccccc2)c2ccccc2)CC1 (configuration not stated)"
tested_on = "Muscarinic acetylcholine receptor M1 (Homo sapiens)"
value_observed = "8.7%"

[[record]]
compound = "CC1CN(C(=O)C(Cc2ccccc2)c2ccccc2)CCN1C (configuration not stated)"
tested_on = "Muscarinic acetylcholine receptor M1 (Homo sapiens)"
value_observed = "1.4%"

[[record]]
compound = "COCCN1CCN(C(=O)C(Cc2ccccc2)c2ccccc2)CC1 (configuration not stated)"
tested_on = "Muscarinic acetylcholine receptor M1 (Homo sapiens)"
value_observed = "10.9%"


Activity for CC(C)N1CCCN(C(=O)C(Cc2ccccc2)c2ccccc2)CC1 (configuration not stated) ?
2.4%

Activity for O=C(C(Cc1ccccc1)c1ccccc1)N1CCN2CCCCC2C1 (configuration not stated) ?
0.5%

I would be grateful if you could share the reported Activity for CN1CCN(C(=O)[C@@](F)(Cc2ccccc2)c2ccccc2)CC1 (mixture of isomers) .
2.7%

Endpoint output: Activity of CN1CCN(C(=O)C(C)(Cc2ccccc2)c2ccccc2)CC1 (configuration not stated) . Value?
39.1%

Bench note: what Activity did CC1CCN(C)CCN1C(=O)C(Cc1ccccc1)c1ccccc1 (configuration not stated) show?
29.6%

Fill blank: measured Activity of the compound CN(C)CCNC(=O)C(Cc1ccccc1)c1ccccc1 (configuration not stated) is ____.
3.5%
